tested on: HCT116; test: Viability after 48 hr culture with analog, crystal violet staining; type: cell-based, human; conditions: HCT116 (mismatch repair deficient)
quantityKind: Highest dose without decreased viability (mM)
Give bare numbers, in mM.

INSERT INTO results (compound, quantitykind, unitsymbol, endpointresult) VALUES
  ('Nc1nc(=O)n([C@H]2C[C@H](O)[C@@H](CO)O2)cc1O [5-hydroxy-2′-deoxycytidine]', 'Highest dose without decreased viability', 'mM', 0.03);

// each compound listed below needs its Highest dose without decreased viability
1. NC1=NC(=O)N([C@H]2C[C@H](O)[C@@H](CO)O2)CN1 [KP-1212, reference compound]
2. Nc1ncc2[nH]cnc2n1 [2′-aminopurine, 2-Aminopurine]
3. CCOc1nc(=O)n([C@H]2C[C@H](O)[C@@H](CO)O2)cc1C [O^4-ethyl-2′-deoxythymidine]

Result:
3.3
0.00033
0.33
